The reported measurements were obtained from patent EP4725969A1.

Biological target: T1, recombinant human HER2 extracellular domain protein (human, UniProt P04626 23-652)
T1 construct: range 23-652; Range is printed for the immunogen/panning protein; also called ErbB2; recombinant HER2 protein
Assay: BLI, Protein A capture
kon reference
Express it in M⁻¹ s⁻¹; write the number only.

Completed entries (count: 2):
Binder	Parameter Measured	Output Unit	Data Value
2126-Hu-H26 (antibody, IgG1, name in Kabat numbering, V domains shown, IgG1/Cκ) VH: QVQLVQSGSELKKPGASVKVSCKASGYTFTDYSMHWVRQAPGQGLEWMGWINTDTGEPTYADDFKGRFVFSLDTSVSTAYLQISSLKAEDTAVYFCVRVGRYDYAMDYWGQGTTVTVSS VL: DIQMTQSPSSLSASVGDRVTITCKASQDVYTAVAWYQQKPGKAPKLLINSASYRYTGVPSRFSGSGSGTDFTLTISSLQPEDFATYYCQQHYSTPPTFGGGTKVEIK	kon	M⁻¹ s⁻¹	107000
2126-Hu-H31 (antibody, IgG1, V domains shown, IgG1/Cκ) VH: QVQLVQSGSELKKPGASVKVSCKASGYTFTDYSMHWVRQAPGQGLEWMGWINTETGDPTYADDFKGRFVFSLDTSVSTAYLQISSLKAEDTAVYFCVRVGRYDYAMDYWGQGTTVTVSS VL: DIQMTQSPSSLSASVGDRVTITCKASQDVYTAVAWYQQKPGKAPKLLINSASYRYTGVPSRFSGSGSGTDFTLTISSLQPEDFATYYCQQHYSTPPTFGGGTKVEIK	kon	M⁻¹ s⁻¹	107000

Let's switch to this binder now.
// query Need kon of 2126-Hu-H49 (antibody, IgG1, name in Kabat numbering, V domains shown, IgG1/Cκ) VH: QVQLVQSGSELKKPGASVKVSCKASGYTFTDYSMHWVRQAPGQGLEWMGWINTETGEPTYADDFKGRFVFSLDTSVSTAYLQISSLKAEDTAVYFCVRVGNYDYAMDYWGQGTTVTVSS VL: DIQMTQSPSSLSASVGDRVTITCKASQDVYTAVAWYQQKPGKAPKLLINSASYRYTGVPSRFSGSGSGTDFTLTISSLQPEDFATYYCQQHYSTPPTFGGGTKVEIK , thanks.
// result 149000
